Tested on: cool season plant species
Experiment: B2 Post-emergence efficacy Test 2, cool season plant species
Type: in vivo
Conditions: CHEAL, 125 g/Ha, 15 days after application, 0=no damage, 100=total kill
Readout Name: Herbicidal activity (0-100 scale) CHEAL

>  <Molecule>
Cc1nn(C)c(=O)c(-c2c(F)ccc(Cl)c2CCc2ccccc2C(F)(F)F)c1O [Compound 1.066]

>  <Observed>
90

$$$$
>  <Molecule>
Cc1nn(C)c(=O)c(-c2c(F)ccc(Cl)c2CCc2ccc(C#N)cc2)c1O [Compound 1.024]

>  <Observed>
90

$$$$
>  <Molecule>
Cc1nn(C)c(=O)c(-c2c(F)ccc(Cl)c2CCc2ccc(F)cc2)c1OC(=O)C(C)C [Compound 1.125]

>  <Observed>
90

$$$$
>  <Molecule>
Cc1nn(C)c(=O)c(-c2c(F)ccc(Cl)c2CCc2ccc(Cl)cc2)c1OC(=O)C(C)C [Compound 1.089]

>  <Observed>
100

$$$$
>  <Molecule>
Cc1nn(C)c(=O)c(-c2c(F)ccc(Cl)c2CCc2ccc(F)cc2)c1O [Compound 1.048]

>  <Observed>
70

$$$$
